# Tested on: Phenion®FT Skin Models
# conditionInfo: human
Could you mark each record TRUE if its Dose producing signs of strong cytotoxicity that limited the top dose falls strictly under 700 µg/cm^2, and FALSE if it equals or exceeds it?

Prompt line: Hello, I'm reviewing records and need to know if Dose producing signs of strong cytotoxicity that limited the top dose of Cc1c(N)cccc1N is below 700 µg/cm^2. Could you check?
Response line: FALSE

Prompt line: Hello, I'm reviewing records and need to know if Dose producing signs of strong cytotoxicity that limited the top dose of O=P1(N(CCCl)CCCl)NCCCO1 (stereo not drawn) [CP, Cyclophosphamide] is below 700 µg/cm^2. Could you check?
Response line: FALSE

Prompt line: Hello, I'm reviewing records and need to know if Dose producing signs of strong cytotoxicity that limited the top dose of O=[N+]([O-])c1ccc(O)cc1 is below 700 µg/cm^2. Could you check?
Response line: TRUE

Prompt line: Hello, I'm reviewing records and need to know if Dose producing signs of strong cytotoxicity that limited the top dose of Oc1cccc(O)c1 [Resorcinol, 1,3-Dihydroxybenzene] is below 700 µg/cm^2. Could you check?
Response line: TRUE

###

# System: Phenion®FT Skin Models
# conditionInfo: human
reportedMetric: Dose tested without cytotoxicity exceeding the cut-off (µg/cm^2)
Quick note: give the figure in µg/cm^2, leave out the unit.

Prompt line: Query for Phenion®FT Skin Models: what Dose tested without cytotoxicity exceeding the cut-off does the record show for Nc1nc[nH]n1 ?
Response line: 1600

Prompt line: Query for Phenion®FT Skin Models: what Dose tested without cytotoxicity exceeding the cut-off does the record show for c1ccc2c(c1)cc1ccc3cccc4ccc2c1c34 [BaP, benzo[a]pyrene] ?
Response line: 160

Prompt line: Query for Phenion®FT Skin Models: what Dose tested without cytotoxicity exceeding the cut-off does the record show for CCc1cc(C(N)=S)ccn1 [Ethionamide] ?
Response line: 240

Prompt line: Query for Phenion®FT Skin Models: what Dose tested without cytotoxicity exceeding the cut-off does the record show for O=[N+]([O-])c1ccc(O)cc1 ?
Response line: 32

###

# Tested on: Phenion®FT Skin Models (keratinocytes and fibroblasts)
reportedMetric: RS Comet assay overall classification

Consider the reported RS Comet assay overall classification for these compounds:
Prompt line: Query for Phenion®FT Skin Models (keratinocytes and fibroblasts): what RS Comet assay overall classification does the record show for O=P1(N(CCCl)CCCl)NCCCO1 (stereo not shown) [CP, Cyclophosphamide] ?
Response line: positive

Prompt line: Query for Phenion®FT Skin Models (keratinocytes and fibroblasts): what RS Comet assay overall classification does the record show for CC(C)(C)c1cc(O)ccc1O [TBHQ, Tert-butylhydroquinone] ?
Response line: negative

Prompt line: Query for Phenion®FT Skin Models (keratinocytes and fibroblasts): what RS Comet assay overall classification does the record show for CN(C)N=O [DMNA, dimethylnitrosamine] ?
Response line: negative

Prompt line: Query for Phenion®FT Skin Models (keratinocytes and fibroblasts): what RS Comet assay overall classification does the record show for Cc1cn([C@H]2C[C@H](N=[N+]=[N-])[C@@H](CO)O2)c(=O)[nH]c1=O [AZT, Azidothymidine] ?
Response line: positive

Prompt line: Query for Phenion®FT Skin Models (keratinocytes and fibroblasts): what RS Comet assay overall classification does the record show for CCOS(C)(=O)=O [EMS, Ethyl methanesulfonate] ?
Response line: positive

New cases:
Prompt line: Query for Phenion®FT Skin Models (keratinocytes and fibroblasts): what RS Comet assay overall classification does the record show for Cc1ccc(N)cc1N [2,4-DAT, 2,4-diaminotoluene] ?
Response line: negative

Prompt line: Query for Phenion®FT Skin Models (keratinocytes and fibroblasts): what RS Comet assay overall classification does the record show for CCc1cc(C(N)=S)ccn1 [Ethionamide] ?
Response line: negative
